# target or system: Recombinant human Mat2a (Homo sapiens)
# experimental protocol: Determination of Mat2A activity (384 well absorbance-based assay, Biomol Green)
# protocol conditions: 12.5 nM Mat2A, 100 μM ATP and Methionine, 2% DMSO, 120 minutes at RT, absorbance at 635 nm
# Experimental: Determination of Mat2A activity Measurement of Mat2A inhibition is performed in 384 well format absorbance-based assay. […] The absorbance signal is measured at λ=635 nm with a multiplate reader (BMG Pherastar reader or equivalent) after 30 min of equilibration at RT.
pIC50: −log10 of the molar value. Counter-ions that a name gives are not always drawn.
readout label: pIC50

(P) Cc1ncsc1-n1c(=O)nc(N)c2ccc(N3C4CCC3CC4)nc21 [Example 90]
(Q) Cc1ncccc1-n1c(=O)nc(N)c2ccc(CC(F)(F)F)cc21 [Example 83, hydrochloride]
Query: Between P and Q , whose measured pIC50 reads higher? Select an item and report its label.
Reply: P
(P: 7.89, Q: 7.49)

----------
# target or system: Recombinant human Mat2a (Homo sapiens)
# experimental protocol: Determination of Mat2A activity (384 well absorbance-based assay, Biomol Green)
# protocol conditions: 12.5 nM Mat2A, 100 μM ATP and Methionine, 2% DMSO, 120 minutes at RT, absorbance at 635 nm
readout label: IC50 (nM)

COc1ccccc1-n1c(=O)nc(N)c2ccc(-c3ccccc3)nc21; 31

(a) Cc1ccccc1-n1c(=O)nc(N)c2ccc(N3CC(F)(F)C3)nc21
(b) Cc1ncccc1-n1c(=O)nc(N)c2ccc(C3=COCC3)nc21
(c) Nc1nc(=O)n(-c2ccccc2Cl)c2nc(C3CC3)ccc12 (single isomer, unassigned) [Example 115]
Query: Descending sort on IC50 required. Kindly provide the labels arranged according to the requested ordering.
Reply: c, b, a
(c: 72 nM, b: 45 nM, a: 22 nM)

----------
# target or system: Recombinant human Mat2a (Homo sapiens, UniProt P31153)
# Sequence (P31153 whole entry): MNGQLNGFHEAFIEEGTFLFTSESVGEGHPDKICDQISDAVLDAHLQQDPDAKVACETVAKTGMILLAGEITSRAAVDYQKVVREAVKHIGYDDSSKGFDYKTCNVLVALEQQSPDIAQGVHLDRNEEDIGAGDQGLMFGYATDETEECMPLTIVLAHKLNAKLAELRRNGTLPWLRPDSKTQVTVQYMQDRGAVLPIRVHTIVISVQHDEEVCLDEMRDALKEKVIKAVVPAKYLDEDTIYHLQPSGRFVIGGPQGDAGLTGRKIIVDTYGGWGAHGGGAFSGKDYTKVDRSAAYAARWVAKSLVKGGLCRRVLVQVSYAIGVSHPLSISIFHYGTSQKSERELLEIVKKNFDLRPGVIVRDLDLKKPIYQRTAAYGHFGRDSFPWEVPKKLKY
# experimental protocol: Determination of Mat2A activity (384 well absorbance-based assay, Biomol Green)
# protocol conditions: 12.5 nM Mat2A, 100 μM ATP and Methionine, 2% DMSO, 120 minutes at RT, absorbance at 635 nm
pIC50: −log10 of the molar value.
readout label: pIC50

Here are 3 compounds together with their reported answers.
COc1nccc(F)c1-n1c(=O)nc(N)c2ccc(C3CC3)nc21; 7.70
Nc1nc(=O)n(-c2cccnc2Cl)c2cc(OC(F)(F)F)ccc12; 7.80
Nc1nc(=O)n(-c2cccc3c2CCO3)c2cc(OC(F)(F)F)ccc12; 7.74

(1) Cc1c(F)cccc1-n1c(=O)nc(N)c2ccc(OC(F)(F)F)cc21
(2) COc1ncccc1-n1c(=O)nc(N)c2ccc(C3CCCCO3)nc21 (stereo not shown)
Query: Would you kindly point out which of 1 and 2 has the smaller pIC50 figure? Select an item and report its label.
Reply: 2
(2: 6.85, 1: 7.72)

----------
# target or system: Recombinant human Mat2a (Homo sapiens, UniProt P31153)
# experimental protocol: Determination of Mat2A activity (384 well absorbance-based assay, Biomol Green)
# protocol conditions: 12.5 nM Mat2A, 100 μM ATP and Methionine, 2% DMSO, 120 minutes at RT, absorbance at 635 nm
# Protocol: Determination of Mat2A activity Measurement of Mat2A inhibition is performed in 384 well format absorbance-based assay. […] The absorbance signal is measured at λ=635 nm with a multiplate reader (BMG Pherastar reader or equivalent) after 30 min of equilibration at RT.
readout label: IC50 (µM)

Here are 5 compounds together with their reported answers.
Nc1nc(=O)n(C2CCn3cncc32)c2nc(C3CC3)ccc12 (stereo not shown); 0.039
CC(C1COC1)n1c(=O)nc(N)c2ccc(C3CC3)nc21 (stereo not shown); 0.042
C[C@H]1OCCC[C@@H]1n1c(=O)nc(N)c2ccc(C3CC3)nc21; 0.013
Cc1cc(F)ccc1-n1c(=O)nc(N)c2ccc(C3CC3)nc21; 0.018
CCOc1c(C#N)cccc1-n1c(=O)nc(N)c2ccc(C3CC3)nc21; 0.015

(a) Nc1nc(=O)n(C2CCCOC23CC3)c2cc(OC(F)F)ccc12 (stereo not shown)
(b) Cc1ncccc1-n1c(=O)nc(N)c2ccc(OC3CC3)cc21
(c) CC(c1ccccn1)n1c(=O)nc(N)c2ccc(C3CC3)nc21 (stereo not shown)
(d) CC(C1CCCO1)n1c(=O)nc(N)c2ccc(C3CC3)nc21 (stereo not shown)
Query: Descending sort on IC50 required. Kindly provide the labels arranged according to the requested ordering.
Reply: a, d, c, b
(a: 0.13 µM, d: 0.086 µM, c: 0.036 µM, b: 0.018 µM)

(P) Cc1ncccc1-n1c(=O)nc(N)c2ccc(C(C)(C)F)cc21
(Q) Nc1nc(=O)n([C@H]2CCCCOC2)c2nc(C3CC3)ccc12
Query: Between P and Q , whose measured IC50 reads higher? Select an item and report its label.
Reply: Q
(Q: 0.04 µM, P: 0.022 µM)

(1) Cn1nccc1-n1c(=O)nc(N)c2ccc(N3C[C@H]4CC[C@@H]3C4)nc21 (racemic)
(2) C[C@@H]1OCC[C@H]1n1c(=O)nc(N)c2ccc(C3CC3)nc21 (racemic)
Query: Would you kindly point out which of 1 and 2 has the smaller IC50 figure? Select an item and report its label.
Reply: 2

----------
# target or system: Recombinant human Mat2a (Homo sapiens)
# experimental protocol: Determination of Mat2A activity (384 well absorbance-based assay, Biomol Green)
# protocol conditions: 12.5 nM Mat2A, 100 μM ATP and Methionine, 2% DMSO, 120 minutes at RT, absorbance at 635 nm
pIC50: −log10 of the molar value.
readout label: pIC50

Here are 5 molecules together with their reported answers.
Nc1nc(=O)n(-c2cccc(F)c2Cl)c2nc(C3CC3)ccc12 (single isomer, unassigned) [Example 117]; 7.11
Cc1cccc(-n2c(=O)nc(N)c3ccc(OC(F)F)cc32)c1F [Example 133]; 7.59
Cc1c(O)cccc1-n1c(=O)nc(N)c2ccc(C3CC3)nc21 [Example 123]; 7.89
Cc1ncoc1-n1c(=O)nc(N)c2ccc(C3CC3)nc21 [Example 50]; 7.72
Nc1nc(=O)n([C@@H]2CCCOC2)c2cc(C(F)(F)F)ccc12 [Example 46]; 7.51

(P) COc1ncccc1-n1c(=O)nc(N)c2cc(Cl)c(C3CC3)nc21 [Example 66]
(Q) C[C@@H]1OCC[C@@H]1n1c(=O)nc(N)c2ccc(C3CC3)nc21 (relative stereo) [Example 89]
Query: Between P and Q , whose measured pIC50 reads higher? Select an item and report its label.
Reply: P
(P: 7.89, Q: 7.28)

(P) C[C@H](c1cnco1)n1c(=O)nc(N)c2ccc(C3CC3)nc21 [Example 75]
(Q) Cc1c(C#N)cccc1-n1c(=O)nc(N)c2ccc(OC(F)(F)F)cc21 [Example 158]
Query: Between P and Q , whose measured pIC50 reads higher? Select an item and report its label.
Reply: Q

(P) Nc1nc(=O)c(-c2ccccc2Cl)c2cc(C(F)(F)F)ccn12 [Example 149]
(Q) Cc1ccccc1-n1c(=O)[nH]c(=O)c2ccc(C3CC3)cc21 [Example 100]
(R) Cc1ccccc1-n1c(=O)nc(N)c2cc(OC(F)F)c(C3CC3)nc21 [Example 113]
Query: Please put the entries in order of rising pIC50. Kindly provide the labels arranged according to the requested ordering.
Reply: Q, P, R

----------
# target or system: Recombinant human Mat2a (Homo sapiens, UniProt P31153)
# experimental protocol: Determination of Mat2A activity (384 well absorbance-based assay, Biomol Green)
# Assay type: biochemical
# protocol conditions: 12.5 nM Mat2A, 100 μM ATP and Methionine, 2% DMSO, 120 minutes at RT, absorbance at 635 nm
pIC50: −log10 of the molar value.
readout label: pIC50

Cc1c(C#N)cccc1-n1c(=O)nc(N)c2ccc(C3CC3)nc21 (single isomer, unassigned) [Example 146]; 7.24
Cc1ccccc1-n1c(=O)nc(O)c2ccc(C3CC3)nc21 [Example 99]; 7.19
Nc1nc(=O)n(C2CCNC(=O)C2)c2nc(C3CC3)ccc12 (stereo not drawn) [Example 97]; 7.32

(1) C[C@@H]1OCCC[C@@H]1n1c(=O)nc(N)c2ccc(C3CC3)nc21 (racemic) [Example 121]
(2) COc1c(C#N)cccc1-n1c(=O)nc(N)c2cc(Cl)c(C(C)C)nc21 [Example 105]
Query: Would you kindly point out which of 1 and 2 has the smaller pIC50 figure? Select an item and report its label.
Reply: 2

----------
Reported pIC50 values follow for various compounds
# target or system: Recombinant human Mat2a (Homo sapiens, UniProt P31153)
# experimental protocol: Determination of Mat2A activity (384 well absorbance-based assay, Biomol Green)
# protocol conditions: 12.5 nM Mat2A, 100 μM ATP and Methionine, 2% DMSO, 120 minutes at RT, absorbance at 635 nm
pIC50: −log10 of the molar value.

Here are 3 compounds together with their reported answers.
Nc1nc(=O)n(-c2cc(F)ccc2F)c2nc(C3CC3)ccc12; 7.70
Cc1c(F)cccc1-n1c(=O)nc(N)c2ccc(OC(F)F)cc21; > 7.89
COc1c(F)cccc1-n1c(=O)nc(N)c2ccc(C3CC3)nc21; 7.57

Query: Which value of pIC50 has been reported for Nc1nc(=O)n(-c2ccccc2F)c2nc(C3CC3)ccc12 in the records?
Reply: > 7.89

Query: Same thing, different compound: Cc1ncccc1-n1c(=O)nc(N)c2cc(Cl)c(C3CC3)nc21
Reply: > 7.89

Query: Same thing, different compound: Cc1c(F)cccc1-n1c(=O)nc(N)c2ccc(C3CC3)nc21 (single isomer, unassigned) [Example 103]
Reply: > 7.89

Query: Same thing, different compound: Nc1nc(=O)n(-c2ccc(F)c(F)c2)c2nc(C3CC3)ccc12
Reply: 7.51

Query: Same thing, different compound: N#Cc1cccc(-n2c(=O)nc(N)c3ccc(C4CC4)nc32)c1Cl
Reply: > 7.89

Query: Same thing, different compound: Nc1nc(=O)n(-c2cccc3c2CCO3)c2cc(C3CC3)ccc12
Reply: > 7.89

Query: Same thing, different compound: Cc1ncccc1-n1c(=O)nc(N)c2ccc(OC(F)(F)F)cc21
Reply: > 7.89

Query: Same thing, different compound: Nc1nc(=O)n(-c2cccc3c2CCN3)c2nc(C3CC3)ccc12
Reply: 7.82

Query: Same thing, different compound: Cc1ccccc1-n1c(=O)nc(N)c2c(C(N)=O)cc(C3CC3)nc21
Reply: 7.13
